Tested on: circulating lymphocytes
Experiment: Lymphopenia assay: circulating lymphocytes after oral gavage
Assay type: in vivo
Details: C57bl/6 male mice, oral gavage 0.5 and 5 mg/kg in 30% HPCD, blood 5 and 24 hours after administration
Experimental: Measurement of circulating lymphocytes: Compounds were dissolved in 30% HPCD. Mice (C57bl/6 male, 6-10 week-old) were administered 0.5 and 5 mg/kg of a compound via oral gavage. 30% HPCD was included as a negative control. Blood was collected from the retro-orbital sinus 5 and 24 hours after drug administration under short isoflurane anesthesia. Whole blood samples were subjected to hematology analysis. Peripheral lymphocyte counts were determined using an automated analyzer (HEMAVET™ 3700). […]
MEASURED ATTRIBUTE: Lymphopenia (ED50 mg/kg)

(Q) State the recorded Lymphopenia (ED50 mg/kg) for this entry: CC(C)(C)[C@H]1CC[C@H](Oc2ccc3cc([C@](C)(N)CO)ccc3c2C(F)(F)F)CC1 (relative stereo)
(A) >5 mg/kg

(Q) Now the molecule C[C@](N)(CO)c1ccc2cc(O[C@H]3C[C@@H](COCc4ccccc4)C3)ccc2c1 (relative stereo)
(A) <0.5 mg/kg

(Q) Next record, please: CC(C)(C)[C@H]1CC[C@H](Oc2ccc3cc([C@@](C)(N)CO)ccc3c2)CC1 [Example 25]
(A) >5 mg/kg

(Q) Input `NC(CO)(CO)c1ccc2c(C(F)(F)F)c(O[C@H]3C[C@H](COCc4ccccc4)C3)ccc2c1`
(A) <0.5 mg/kg

(Q) Moving on to C[C@](N)(CO)c1ccc2cc(O[C@H]3C[C@H](COCc4ccccc4)C3)ccc2c1 (relative stereo)
(A) 0.5 to 5 mg/kg

(Q) Further, for `Cl.NC(CO)(CO)c1ccc2cc(O[C@H]3C[C@H](COCc4ccccc4)C3)ccc2c1` ?
(A) <0.5 mg/kg

(Q) Repeat with CC(C)(C)[C@H]1CC[C@H](Oc2ccc3cc([C@@](C)(N)CO)ccc3c2)CC1 [Example 49]
(A) 0.4 mg/kg

(Q) Note, next up: CCC(C)(C)[C@H]1CC[C@H](Oc2ccc3cc([C@@](C)(N)CO)ccc3c2)CC1 (relative stereo)
(A) 0.5 to 5 mg/kg

(Q) Check CCC(C)(C)[C@H]1CC[C@@H](Oc2ccc3cc([C@@](C)(N)CO)ccc3c2)CC1 (relative stereo) too.
(A) >5 mg/kg

(Q) What about C[C@](N)(CO)c1ccc2c(C(F)(F)F)c(O[C@H]3C[C@H](COCc4ccccc4)C3)ccc2c1 (relative stereo) ?
(A) <0.5 mg/kg

(Q) Next molecule up: CC(C)(C)[C@H]1CC[C@@H](Oc2ccc3cc([C@](C)(N)CO)ccc3c2C(F)(F)F)CC1 (relative stereo)
(A) 0.5 to 5 mg/kg

(Q) Please do the same for `NC(CO)(CO)c1ccc2c(C(F)(F)F)c(O[C@H]3C[C@@H](COCc4ccccc4)C3)ccc2c1` as well.
(A) <0.5 mg/kg

(Q) Same thing, different molecule: `Cl.NC(CO)(CO)c1ccc2cc(O[C@H]3C[C@@H](COCc4ccccc4)C3)ccc2c1`
(A) <0.5 mg/kg

----------
System: circulating lymphocytes
Assay: Lymphopenia assay: circulating lymphocytes after oral gavage
Type: in vivo
Details: Mus musculus, Lymphocyte, po, C57bl/6 male mice, oral gavage 0.5 and 5 mg/kg in 30% HPCD, blood 5 and 24 hours after administration
MEASURED ATTRIBUTE: ED50

(Q) May I ask what ED50 has been recorded for `C[C@](N)(CO)c1ccc2cc(Oc3ccc(F)c(F)c3)ccc2c1` ?
(A) 0.5 to 5 mg/kg

(Q) Next up: `C[C@](N)(CO)c1ccc2cc(OC3CCC4(CCCCC4)CC3)ccc2c1`
(A) 0.5 to 5 mg/kg

(Q) Likewise for CC(CO)c1ccc2c(C(F)(F)F)c(O[C@H]3CC[C@H](C(C)(C)C)CC3)ccc2c1 (relative stereo) ?
(A) > 5 mg/kg

(Q) Now this one: `Cc1cc(C)cc(Oc2ccc3cc([C@@](C)(N)CO)ccc3c2)c1`
(A) 0.5 to 5 mg/kg

(Q) Entry to check: `CCC(F)(F)[C@H]1CC[C@H](Oc2ccc3cc([C@@](C)(N)CO)ccc3c2)CC1`
(A) < 0.5 mg/kg

(Q) `CCCC[C@H]1CC[C@@H](Oc2ccc3cc([C@@](C)(N)CO)ccc3c2)CC1` , same question.
(A) 0.75 mg/kg

(Q) How about `CC(C)(C)[C@H]1CC[C@H](Oc2ccc3cc([C@@](C)(N)CO)ccc3c2-c2ccc(OC(F)(F)F)cc2)CC1` ?
(A) > 5 mg/kg

(Q) Consider next the compound `CCCC(F)(F)[C@H]1CC[C@@H](Oc2ccc3cc([C@@](C)(N)CO)ccc3c2)CC1` in the same way.
(A) > 5 mg/kg

(Q) Could you do the same for `C[C@](N)(CO)c1ccc2cc(Oc3ccc(F)c(Cl)c3)ccc2c1` , please?
(A) 0.5 to 5 mg/kg
